# assayed_target: Peroxisome proliferator-activated receptor gamma (Homo sapiens)
# Sequence (P37231 whole entry): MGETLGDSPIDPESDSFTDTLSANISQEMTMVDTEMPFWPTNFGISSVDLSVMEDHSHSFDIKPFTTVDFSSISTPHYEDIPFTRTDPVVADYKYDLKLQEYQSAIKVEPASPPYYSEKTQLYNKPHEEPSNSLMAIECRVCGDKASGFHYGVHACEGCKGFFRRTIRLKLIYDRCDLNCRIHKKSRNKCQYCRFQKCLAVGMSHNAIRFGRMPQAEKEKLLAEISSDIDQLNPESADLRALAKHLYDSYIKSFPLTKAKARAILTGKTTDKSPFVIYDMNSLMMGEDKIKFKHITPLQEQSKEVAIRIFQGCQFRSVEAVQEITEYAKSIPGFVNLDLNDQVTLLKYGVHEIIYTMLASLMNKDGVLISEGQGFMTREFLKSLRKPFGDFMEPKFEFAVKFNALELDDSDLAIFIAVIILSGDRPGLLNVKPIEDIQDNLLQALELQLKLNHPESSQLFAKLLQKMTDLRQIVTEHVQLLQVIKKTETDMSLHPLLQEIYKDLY
# protocol_details: Binding affinity to PPARgamma (unknown origin) by TR-FRET assay
measure_name: Ki (µM)

[P] COc1ccc2c(=O)cc(CCc3ccccc3)oc2c1
[Q] COc1ccc(Cl)cc1C(=O)NCCc1ccc(S(=O)(=O)NC(=O)NC2CCCCC2)cc1 [GLYBURIDE]
For the pair P and Q , which member has the lower Ki number? Indicate your choice by writing its label.
Q
(Q: 0.66 µM, P: 14.9 µM)

Entry source: ChEMBL document CHEMBL4330147
